# Procedure summary: Plasma stability, rat
# Assay type: in vitro ADME
Property label: Plasma Stability: % remaining after 5 hours (%)

# Compound, Result
rows = [
    ("O=C(NC(c1ccc(Cl)cc1)c1ccccn1)C1CCN(CCOc2ccc(C(F)(F)F)cc2)CC1 (centres unmarked)", 98.1),
    ("O=C(NC(c1ccc(Cl)cc1)c1cccnc1)C1CCN(CCOc2ccccc2)CC1 (centres unmarked)", 98),
    ("O=C(NC(c1ccncc1)c1ccc(Cl)cc1)C1CCN(CCOc2ccccc2)CC1 (centres unmarked)", 95),
    ("O=C(NC(c1ccc(Cl)cc1)c1ccccc1F)C1CCN(CCOc2ccccc2)CC1 (centres unmarked)", 90),
    ("O=C(NC(c1cccc(F)c1)c1ccccn1)C1CCN(CCOc2ccccc2)CC1 (centres unmarked)", 99),
    ("O=C(NC(c1ccc(Cl)cc1)c1ccccn1)C1CCN(CCOc2ccc(F)cc2)CC1 (centres unmarked)", 95.2),
    ("O=C(NC(c1cccc(C(F)(F)F)c1)c1ccccn1)C1CCN(CCOc2ccccc2)CC1 (centres unmarked)", 98),
    ("O=C(NC(c1ccccn1)C1CCCCC1)C1CCN(CCOc2ccccc2)CC1 (centres unmarked)", 100),
    ("O=C(NC(c1ccc(Cl)cc1)c1ccccn1)C1CCN(CCOc2ccccc2F)CC1 (centres unmarked)", 86),
    ("O=C(NC(c1ccc(F)cc1)c1ccccn1)C1CCN(CCOc2ccccc2C(F)(F)F)CC1 (centres unmarked)", 55),
    ("O=C(NC(c1ccc(Cl)cc1)c1ccccn1)C1CCN(CCn2ccc(=O)cc2)CC1 (centres unmarked)", 100),
    ("O=C(NC(c1ccc(Cl)cc1)c1ccccn1)C1CCN(CCOc2cccc(C(F)(F)F)c2)CC1 (centres unmarked)", 93.5),
    ("O=C(NC(c1ccc(Cl)cc1)c1ccccn1)C1CCN(CCCc2ccccc2)CC1 (centres unmarked)", 93.2),
    ("O=C(NC(c1ccc(F)cc1)c1ccc(Cl)cc1)C1CCN(CCOc2ccccc2)CC1 (centres unmarked)", 93),
    ("O=C(NC(c1ccc(Cl)cc1)c1ccccn1)C1CCN(CCOc2cc(F)ccc2F)CC1 (centres unmarked)", 78.2),
    ("O=C(NC(c1ccccn1)c1ccccc1F)C1CCN(CCOc2ccccc2)CC1 (centres unmarked)", 99),
]

###

Microsomal Stability: % remaining after 60 minutes reference
# Procedure summary: Microsomal stability, mouse
Property label: Microsomal Stability: % remaining after 60 minutes (%)

# Compound, Result
measured = [
    ("O=C(NC(c1ccc(Cl)cc1)c1ccccn1)C1CCN(CCOc2ccc3ccc(=O)[nH]c3c2)CC1 (stereo not shown)", 44),
    ("O=C(NC(c1ccccn1)C1CCCCC1)C1CCN(CCOc2ccccc2)CC1 (stereo not shown)", 31),
    ("O=C(NC(c1ccc(Cl)cc1)c1ccccn1)C1CCN(CCOc2cccc(C(F)(F)F)c2)CC1 (stereo not shown)", 44),
    ("O=C(NC(c1ccc(Cl)cc1)c1ccccn1)C1CCN(CCOc2ccccc2Cl)CC1 (stereo not shown)", 7),
]

###

# Target entity: human D2R/β-arrestin (Homo sapiens (Human))
# Sequence (P14416 whole entry): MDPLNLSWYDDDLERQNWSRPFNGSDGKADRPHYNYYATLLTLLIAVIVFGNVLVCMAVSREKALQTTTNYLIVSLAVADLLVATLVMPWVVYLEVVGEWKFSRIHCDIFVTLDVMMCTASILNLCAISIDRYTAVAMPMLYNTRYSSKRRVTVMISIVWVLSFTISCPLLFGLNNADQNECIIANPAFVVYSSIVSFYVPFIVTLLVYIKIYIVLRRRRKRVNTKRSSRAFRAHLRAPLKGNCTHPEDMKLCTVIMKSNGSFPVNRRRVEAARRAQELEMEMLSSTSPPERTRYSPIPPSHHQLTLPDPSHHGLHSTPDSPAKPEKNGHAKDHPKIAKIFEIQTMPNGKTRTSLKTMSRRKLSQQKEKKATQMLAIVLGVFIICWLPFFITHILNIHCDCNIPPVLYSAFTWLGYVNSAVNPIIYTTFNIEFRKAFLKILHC
# Procedure summary: cell-based
# Settings: β-arrestin Antagonist, CHO-K1 cell line expressing human D2R/β-arrestin; quinpirole used as agonist
pIC50: −log10 of the molar value.

# Compound, pIC50
records = [
    ("O=C(NC(c1ccc(Cl)cc1)c1ccc(F)cn1)C1CCN(CCOc2ccccc2F)CC1 (centres unmarked) [Compound 92]", "6.00 to 7.00"),
    ("c1ccc(OCCN2CCC(CNC(c3ccc4c(c3)OCO4)c3ccccn3)CC2)cc1 (centres unmarked) [Compound 102]", "6.00 to 7.00"),
    ("O=C(NC(c1cccc(C(F)(F)F)c1)c1ccccn1)C1CCN(CCOc2ccccc2)CC1 (centres unmarked)", "6.00 to 7.00"),
    ("Clc1ccc(C(NCC2CCN(CCOc3ccccc3)CC2)c2ccccn2)cc1 (centres unmarked) [Compound 114]", "6.00 to 7.00"),
    ("O=C(NC(c1ccc(Cl)cc1)c1ccccn1)C1CCN(CCOc2ccc3ncsc3c2)CC1 (centres unmarked)", "5.00 to 6.00"),
    ("Fc1ccc(F)c(OCCN2CCC(CNC(c3ccc(Cl)cc3)c3ccccn3)CC2)c1 (single isomer, unassigned) [Compound 89b]", "5.00 to 6.00"),
    ("CC1(C(=O)NC(c2ccc(F)cc2)c2ccccn2)CCN(CCOc2ccccc2F)CC1 (centres unmarked)", "6.00 to 7.00"),
    ("COc1cccc(C(c2ccccn2)N(C)CC2CCN(CCOc3ccccc3F)CC2)c1 (single isomer, unassigned) [Compound 77a]", "6.00 to 7.00"),
]
